The origin of these recorded values is ChEMBL document CHEMBL3991601.

assayed.system: Tyrosine-protein kinase BTK (Homo sapiens, UniProt Q06187); further: in the data inactive means no Kd found up to 30 µM
Sequence (Q06187 whole entry): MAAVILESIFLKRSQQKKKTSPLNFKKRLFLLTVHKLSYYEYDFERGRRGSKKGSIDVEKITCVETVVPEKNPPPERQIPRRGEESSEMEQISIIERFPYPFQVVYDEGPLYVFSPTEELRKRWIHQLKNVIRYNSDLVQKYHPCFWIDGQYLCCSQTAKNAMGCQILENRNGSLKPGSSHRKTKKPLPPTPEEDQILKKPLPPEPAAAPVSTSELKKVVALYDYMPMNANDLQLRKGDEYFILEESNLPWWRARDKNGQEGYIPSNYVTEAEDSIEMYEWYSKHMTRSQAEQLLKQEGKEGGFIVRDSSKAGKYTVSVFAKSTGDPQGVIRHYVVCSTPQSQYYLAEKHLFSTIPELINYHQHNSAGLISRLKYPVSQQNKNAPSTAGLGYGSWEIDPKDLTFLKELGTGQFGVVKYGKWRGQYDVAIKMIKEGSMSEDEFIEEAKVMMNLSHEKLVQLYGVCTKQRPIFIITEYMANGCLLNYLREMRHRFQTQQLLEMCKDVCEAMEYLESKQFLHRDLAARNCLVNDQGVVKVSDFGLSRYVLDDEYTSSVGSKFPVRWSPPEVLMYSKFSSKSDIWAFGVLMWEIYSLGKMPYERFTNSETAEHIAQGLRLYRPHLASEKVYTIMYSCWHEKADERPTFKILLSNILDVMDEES
Calls of active or inactive are those of the source.
Mark one answer only. Choices: TRUE for active, FALSE for inactive

O=c1[nH]ccc2cc(OC3CCNCC3)ccc12 [SAR-407899 FREE BASE] = FALSE

Asked: Field: outcome | Entry: Cn1cc(-c2cnn3c(N)c(Br)c([C@@H]4CCCNC4)nc23)cn1
Given back: FALSE

Asked: Which result was noted for this molecule in the test: C=CC(=O)Nc1cc2c(Nc3ccc(F)c(Cl)c3)ncnc2cc1C#CC(C)(C)N1CCN(C)CC1 [AV-412 FREE BASE]
Given back: TRUE

Asked: # fetch the recorded call for O=C(Nc1c[nH]nc1-c1nc2cc(CN3CCOCC3)ccc2[nH]1)NC1CC1 here
Given back: TRUE
